A collection of compounds and their measured Hemolysis at 100 μg/ml
system: human red blood cells (hRBC); assay: Hemolysis of human red blood cells; format: cell-based; conditions: red cells of human, 1 h, 100
Where a SMILES comes first, the peptide text is derived from it. [ ]: non-standard residue; d: D form. Cha = N[C@@H](CC1CCCCC1)C(=O)O; Phg = N[C@H](C(=O)O)c1ccccc1; Tle = CC(C)(C)[C@H](N)C(=O)O; dDab = NCC[C@@H](N)C(=O)O; Orn = NCCC[C@H](N)C(=O)O; Dab = NCC[C@H](N)C(=O)O; Nva = CCC[C@H](N)C(=O)O; Dap = NC[C@H](N)C(=O)O
Note: unit % is implicit; provide only the numeric part.

1. CC[C@H](C)[C@@H]1NC(=O)[C@H](CCN)NC(=O)[C@H](Cc2c[nH]c3ccccc23)NC(=O)[C@H](CCN)NC(=O)[C@@H](CCN)NC(=O)[C@H](CCCN)NC(=O)[C@H](CCN)NC(=O)[C@H](Cc2ccc(O)cc2)NC(=O)[C@H](CO)NC(=O)[C@H]([C@@H](C)CC)NC(=O)[C@@H]2CCCN2C(=O)[C@H]2CCCN2C(=O)[C@H](CO)NC(=O)[C@H](C)NC1=O [compound 81] (cyclo(ISY[Dab][Orn][dDab][Dab]W[Dab]IAS[dP]P)) ... 1
2. CC[C@H](C)[C@@H]1NC(=O)[C@@H]2CCCN2C(=O)[C@H]2CCCN2C(=O)[C@H](CO)NC(=O)[C@H](C)NC(=O)[C@H](C(C)(C)C)NC(=O)[C@H](CCN)NC(=O)[C@H](Cc2c[nH]c3ccccc23)NC(=O)[C@H](CCN)NC(=O)[C@@H](CCN)NC(=O)[C@H](CCCN)NC(=O)[C@H](CCN)NC(=O)[C@H](Cc2ccc(O)cc2)NC(=O)[C@H]([C@@H](C)O)NC1=O [compound 84] (cyclo(ITY[Dab][Orn][dDab][Dab]W[Dab][Tle]AS[dP]P)) ... 0
3. COC[C@@H]1NC(=O)[C@H](C(C)(C)C)NC(=O)[C@H](CCN)NC(=O)[C@H](Cc2c[nH]c3ccccc23)NC(=O)[C@H](CCN)NC(=O)[C@@H](CCN)NC(=O)[C@H](CCCN)NC(=O)[C@H](CCN)NC(=O)[C@H](CC2CCCCC2)NC(=O)[C@H](CN)NC(=O)[C@H](Cc2c[nH]c3ccccc23)NC(=O)[C@@H]2CCCN2C(=O)[C@H]2CCCN2C(=O)[C@H](CO)NC1=O [Ex. 6] (cyclo(W[Dap][Cha][Dab][Orn][dDab][Dab]W[Dab][Tle]S(Me)S[dP]P)) ... 3
4. CC(C)C[C@@H]1NC(=O)[C@@H]2CCCN2C(=O)[C@H]2CCCN2C(=O)[C@H](CO)NC(=O)[C@H](C)NC(=O)[C@H](C(C)(C)C)NC(=O)[C@H](CCN)NC(=O)[C@H](Cc2c[nH]c3ccccc23)NC(=O)[C@H](CCN)NC(=O)[C@@H](CCN)NC(=O)[C@H](CCCN)NC(=O)[C@H](CCN)NC(=O)[C@H](Cc2ccc(O)cc2)NC(=O)[C@H](C)NC1=O [compound 43] (cyclo(LAY[Dab][Orn][dDab][Dab]W[Dab][Tle]AS[dP]P)) ... 1
5. CCC[C@@H]1NC(=O)[C@@H]2CCCN2C(=O)[C@H]2CCCN2C(=O)[C@H](CO)NC(=O)[C@H](C)NC(=O)[C@H](C(C)(C)C)NC(=O)[C@H](CCN)NC(=O)[C@H](Cc2c[nH]c3ccccc23)NC(=O)[C@H](CCN)NC(=O)[C@@H](CCN)NC(=O)[C@H](CCCN)NC(=O)[C@H](CCN)NC(=O)[C@H](Cc2c[nH]c3ccccc23)NC(=O)[C@H](CO)NC1=O [compound 80] (cyclo([Nva]SW[Dab][Orn][dDab][Dab]W[Dab][Tle]AS[dP]P)) ... 1
6. CC(C)C[C@@H]1NC(=O)[C@@H]2CCCN2C(=O)[C@H]2CCCN2C(=O)[C@H](CO)NC(=O)[C@H](C)NC(=O)[C@H](c2ccccc2)NC(=O)[C@H](CCN)NC(=O)[C@H](Cc2c[nH]c3ccccc23)NC(=O)[C@H](CCN)NC(=O)[C@@H](CCN)NC(=O)[C@H](CCCN)NC(=O)[C@H](CCN)NC(=O)[C@H](Cc2ccc(O)cc2)NC(=O)[C@H](CO)NC1=O [compound 107] (cyclo(LSY[Dab][Orn][dDab][Dab]W[Dab][Phg]AS[dP]P)) ... 2
7. CC(C)C[C@@H]1NC(=O)[C@@H]2CCCN2C(=O)[C@H]2CCCN2C(=O)[C@H](CO)NC(=O)[C@H](C)NC(=O)[C@H](C(C)(C)C)NC(=O)[C@H](CCN)NC(=O)[C@H](Cc2c[nH]c3ccccc23)NC(=O)[C@H](CN)NC(=O)[C@@H](CCN)NC(=O)[C@H](CCCN)NC(=O)[C@H](CCN)NC(=O)[C@H](Cc2ccc(O)cc2)NC(=O)[C@H](CO)NC1=O [Ex. 103] (cyclo(LSY[Dab][Orn][dDab][Dap]W[Dab][Tle]AS[dP]P)) ... 1
8. CC(C)C[C@@H]1NC(=O)[C@@H]2CCCN2C(=O)[C@H]2CCCN2C(=O)[C@H](CO)NC(=O)[C@H](CO)NC(=O)[C@H](C(C)(C)C)NC(=O)[C@H](CCN)NC(=O)[C@H](Cc2c[nH]c3ccccc23)NC(=O)[C@H](CCN)NC(=O)[C@H](CCN)NC(=O)[C@H](CCCN)NC(=O)[C@H](CCN)NC(=O)[C@H](CC2CCCCC2)NC(=O)[C@H](CO)NC1=O [compound 143] (cyclo(LS[Cha][Dab][Orn][Dab][Dab]W[Dab][Tle]SS[dP]P)) ... 0

Pending compound:
[in] For the compound CC(C)C[C@@H]1NC(=O)[C@@H]2CCCN2C(=O)[C@H]2CCCN2C(=O)[C@H](CO)NC(=O)[C@H]([C@@H](C)O)NC(=O)[C@H](C(C)(C)C)NC(=O)[C@H](CCN)NC(=O)[C@H](Cc2c[nH]c3ccccc23)NC(=O)[C@H](CCN)NC(=O)[C@@H](CCN)NC(=O)[C@H](CCCN)NC(=O)[C@H](CCN)NC(=O)[C@H](Cc2ccc(O)cc2)NC(=O)[C@H]([C@@H](C)O)NC1=O [compound 122] (cyclo(LTY[Dab][Orn][dDab][Dab]W[Dab][Tle]TS[dP]P)) , report Hemolysis at 100 μg/ml.
[out] 0

====

tested on: human red blood cells (hRBC); test: Hemolysis of human red blood cells; format: cell-based; details: red cells of human, 1 h, 100
*1 amine or outer side, *2 acyl side, *3 side chain or, on linkers, in order; H or OH if unused. Where a SMILES comes first, the peptide text is derived from it. Side-chain parts run from the residue outwards. [ ]: non-standard residue; d: D form. The star is where a group is joined. Pro(3S-OH) = O=C(O)[C@H]1NCC[C@@H]1O; Cha = N[C@@H](CC1CCCCC1)C(=O)O; Chg = N[C@H](C(=O)O)C1CCCCC1; Tle = CC(C)(C)[C@H](N)C(=O)O; dDab = NCC[C@@H](N)C(=O)O; Orn = NCCC[C@H](N)C(=O)O; Api = NC1(C(=O)O)CCNCC1; Dab = NCC[C@H](N)C(=O)O; Nva = CCC[C@H](N)C(=O)O; Dap = NC[C@H](N)C(=O)O; CO = O=C([*:1])[*:2]; NHiPr = CC(C)N*
A collection of compounds and their measured Hemolysis at 100 μg/ml
Kindly report the value followed by its unit.

Here are 2 compounds together with their reported answers.
1) C[C@@H]1NC(=O)[C@H](C(C)(C)C)NC(=O)[C@H](CCN)NC(=O)[C@H](Cc2c[nH]c3ccccc23)NC(=O)[C@H](CCN)NC(=O)[C@@H](CCN)NC(=O)[C@H](CCCN)NC(=O)[C@H](CCN)NC(=O)[C@H](Cc2ccc(O)cc2)NC(=O)[C@H](CO)NC(=O)[C@H](Cc2ccc(O)cc2)NC(=O)[C@@H]2CCCN2C(=O)[C@H]2CCCN2C(=O)[C@H](CO)NC1=O [compound 21] (cyclo(YSY[Dab][Orn][dDab][Dab]W[Dab][Tle]AS[dP]P)) ... 1%
2) C[C@@H]1NC(=O)[C@H](Cc2c[nH]c3ccccc23)NC(=O)[C@@H]2[C@@H](O)CCN2C(=O)[C@H]2CCCN2C(=O)[C@H](CO)NC(=O)[C@H](CO)NC(=O)[C@H](C(C)(C)C)NC(=O)[C@H](CCN)NC(=O)[C@H](Cc2c[nH]c3ccccc23)NC(=O)[C@H](CCN)NC(=O)[C@@H](CCN)NC(=O)[C@H](CCCN)NC(=O)[C@H](CCN)NC(=O)[C@H](C2CCCCC2)NC1=O [compound 65] (cyclo(WA[Chg][Dab][Orn][dDab][Dab]W[Dab][Tle]SS[dP][Pro(3S-OH)])) ... 3.5%

[in] For the compound CC(C)C[C@@H]1NC(=O)[C@@H]2CCCN2C(=O)[C@H]2CCCN2C(=O)[C@H](CO)NC(=O)[C@H](C)NC(=O)[C@H](C(C)(C)C)NC(=O)[C@H](CCN)NC(=O)[C@H](Cc2c[nH]c3ccccc23)NC(=O)[C@H](CCN)NC(=O)[C@@H](CCN)NC(=O)[C@H](CCCN)NC(=O)[C@H](CCN)NC(=O)[C@H](CC2CCCCC2)NC(=O)[C@H](CNC(=O)NC(C)C)NC1=O [compound 40] (cyclo(L[Dap]([CO-NHiPr])[Cha][Dab][Orn][dDab][Dab]W[Dab][Tle]AS[dP]P)) , report Hemolysis at 100 μg/ml.
[out] 1%

[in] For the compound C[C@@H]1NC(=O)[C@H](C(C)(C)C)NC(=O)[C@H](CCN)NC(=O)[C@H](Cc2c[nH]c3ccccc23)NC(=O)[C@H](CCN)NC(=O)C2(CCNCC2)NC(=O)[C@H](CCCN)NC(=O)[C@H](CCN)NC(=O)[C@H](CC2CCCCC2)NC(=O)[C@H](CN)NC(=O)[C@H](Cc2c[nH]c3ccccc23)NC(=O)[C@@H]2CCCN2C(=O)[C@H]2CCCN2C(=O)[C@H](CO)NC1=O [Ex. 62] (cyclo(W[Dap][Cha][Dab][Orn][Api][Dab]W[Dab][Tle]AS[dP]P)) , report Hemolysis at 100 μg/ml.
[out] 1%

[in] For the compound CCC[C@@H]1NC(=O)[C@@H]2CCCN2C(=O)[C@H]2CCCN2C(=O)[C@H](CO)NC(=O)[C@H](CO)NC(=O)[C@H](C(C)(C)C)NC(=O)[C@H](CCN)NC(=O)[C@H](Cc2c[nH]c3ccccc23)NC(=O)[C@H](CCN)NC(=O)[C@@H](CCN)NC(=O)[C@H](CCCN)NC(=O)[C@H](CCN)NC(=O)[C@H](CC2CCCCC2)NC(=O)[C@H](CO)NC1=O [compound 144] (cyclo([Nva]S[Cha][Dab][Orn][dDab][Dab]W[Dab][Tle]SS[dP]P)) , report Hemolysis at 100 μg/ml.
[out] 7%

Values compiled from patent US9938322B2.
